The origin of these recorded values is ChEMBL document CHEMBL5537207.

- procedure.summary: Volume of distribution at steady state in Sprague-Dawley rat at 1 mg/kg, iv measured upto 24 hrs
- Assay type: ADME, organism-based
- test.parameters: in vivo, read-out: Vdss
endpoint: Vd (L/kg)
Field format: number, assumed L/kg, no unit text.

For record `Cc1cc2c(-c3ccc(NC(=O)[C@H](N)CC(C)(C)C)cc3C)ccnc2[nH]1` the listed Vd is 0.91
